The values you see were collected from the supplement of paper PMC12764529.

assay: folding stability dG unfold from trypsin proteolysis; higher = more stable
// thresholds for folding stability dG unfold classes: c1 (below 0.7 kcal/mol), c2 (0.7 kcal/mol to below 2 kcal/mol), c3 (2 kcal/mol or more)

1) SAGGKVKALIIPAPDEPGKPVYLKIIHPDGEIVYPLPNDITEEEAKAAAIELGEENGLDLDEIEIAESAGGS [r16_753_TrMRF]	c1
2) SAGGSAGGSAGGKKKIKVELEVKEDGTIRMKATTEDGEEIETEIKVEKVEVTVFLPPEKSAGGSAGGSAGGS [r10_237_TrROS_Hall]	c2
3) SAKTKTIEIEVKIKLIEIDPKTGKKTEKEFTAKATITYDEENNVVTIKIEFKDNGKTITITLPPGAKIKSAG [r14_587_TrROS_Hall]	c3
4) GRMYIVKIEIKVKRRDPEEGETRERKLEVHVIFPPNDPDALEKADEIARNLAEEDGITDVKVKIYPIRLPDS [r1_346_TrROS]	c2
5) SAMTTTTSVDPASGSSTVTTTEIIEKPAGKLPNGTKLPPVKVKKTTTTTYAPNGTKLSTTTTTTPVPLGSAG [r14_246_JUSTAS]	c2
6) SAGGSAGGSAGGGVVTLPDLKGLSEEELKALAEEIAKKLGLENVPLKLEFGEDGNLTLVLSAGGSAGGSAGG [r7_810_JUSTAS]	c3
7) SAGGSAGGSAGGPYEKAVEAAKALGSEDKPITIKLPNGTTVTLKPSELPSLPYEDPIVLLSAGGSAGGSAGG [r7_863_JUSTAS]	c1
8) SAGGMTKEKALELAEEIAREFAKKHGIEKLELKVEDVVEKEDEVIVRLKIVYPDKVYELDLVVPKDYVSAGG [r13_611_TrMRF]	c3
9) SPVKWGEEKTYTYPFPDNPNYRIKIKVHVYKDPENGRPYVRMNIEVYNNGKPRKYNINMPVDQLKDLLQFSA [r9_71_TrROS]	c3
10) SAGGKSVHIPGLSFEDLRDLIRNLPEPVTIHIEMPMRYPMYKYENGKPKEWQRQEMPMTSTFKIPPDDSAGG [r13_632_TrROS]	c1
